Value source: the supplement of paper PMC6607015

test system: HeLa MZ; assay: whole-cell filipin (free cholesterol) integrated intensity, Z-score; higher = more cholesterol staining; details: compound concentration in added solution (µM; 5 µl added to 20 µl cells): 10; 18 h
Quick rule: whole-cell filipin (z-score) of at least -0.3 means fulfilled, below that means not fulfilled.

[in] Dear colleague, could you confirm whether C=C1/C(=C\C=C2/CCC[C@]3(C)[C@@H]([C@H](C)CCCC(C)C)CC[C@@H]23)C[C@@H](O)C[C@@H]1O [Alfacalcidol] has whole-cell filipin (z-score) at or above -0.3?
[out] not fulfilled

[in] Hi team, for Nc1ccn([C@@H]2CS[C@H](CO)O2)c(=O)n1 [Lamivudine] , is the recorded whole-cell filipin (z-score) at or above -0.3?
[out] fulfilled

[in] Please check the record N#Cc1ccc(C(c2ccc(C#N)cc2)n2cncn2)cc1 [Letrozole] and state if its whole-cell filipin (z-score) is at or above -0.3.
[out] fulfilled

[in] Is whole-cell filipin (z-score) for C[C@@H]1CCC[C@H](C)N1NC(=O)c1ccc(Cl)c(S(N)(=O)=O)c1 [Clopamide] at or above -0.3?
[out] not fulfilled

---

system: HeLa MZ; assay: LBPA endosome anti-LBPA integrated intensity (sum per cell), Z-score; higher = more LBPA staining; conditions: compound concentration in added solution (µM; 5 µl added to 20 µl cells): 10; 18 h
Counter-ions that a name gives are not always drawn.
Below, each of the molecules is paired with its reported LBPA endosome anti-LBPA integrated intensity (z-score) value.
Hey, just send me the number, nothing else.

[
  {
    "Molecule": "NS(=O)(=O)c1cc2c(cc1Cl)N=CNS2(=O)=O [Chlorothiazide]",
    "Value": -0.375
  },
  {
    "Molecule": "COCCOC(=O)C1=C(C)NC(C)=C(C(=O)OC/C=C/c2ccccc2)C1c1cccc([N+](=O)[O-])c1 (stereo unspecified)",
    "Value": 0.589
  },
  {
    "Molecule": "Cc1cc(C)nc(NS(=O)(=O)c2ccc(N)cc2)n1 [Sulfamethazine sodium salt]",
    "Value": 0.511
  },
  {
    "Molecule": "C[N+]1(C)CCC(=C(c2ccccc2)c2ccccc2)CC1 [Diphemanil methylsulfate]",
    "Value": -1.21
  },
  {
    "Molecule": "O=c1[nH]c(=O)n([C@H]2C[C@H](O)[C@@H](CO)O2)cc1C(F)(F)F",
    "Value": 0.648
  }
]

Lab note: next molecule to report on.
Record `C[C@@H]1[C@H](O)[C@@H](C)/C=C/C=C/C=C/C=C/C=C/C=C/C=C/[C@H](O[C@@H]2O[C@H](C)[C@@H](O)[C@H](N)[C@@H]2O)C[C@@H]2O[C@](O)(C[C@@H](O)C[C@@H](O)[C@H](O)CC[C@@H](O)C[C@@H](O)CC(=O)O[C@H]1C)C[C@H](O)[C@H]2C(=O)O` ; system HeLa MZ; LBPA endosome anti-LBPA integrated intensity (z-score) = -0.696

---

tested on: A431; assay: LBPA endosome anti-LBPA integrated intensity (sum per cell), Z-score; higher = more LBPA staining; details: compound concentration in added solution (µM; 5 µl added to 20 µl cells): 10; 18 h
Structures can show the parent of a compound that is named as a salt.
Label 1 when LBPA endosome anti-LBPA integrated intensity (z-score) is at or above -0.5; otherwise label -1.

These solved cases illustrate the format of a correct answer.
[
  {
    "Compound": "C[C@]12CC[C@H]3C(=CCc4cc(O)ccc43)[C@@H]1CCC2=O",
    "Label value": 1
  },
  {
    "Compound": "CC[C@]12CCCN3CCc4c(n(c5ccccc45)[C@@](O)(C(=O)OC)C1)[C@@H]32",
    "Label value": 1
  },
  {
    "Compound": "Cc1cc(C(C)(C)C)c(O)c(C)c1CC1=NCCN1 [Oxymetazoline hydrochloride]",
    "Label value": -1
  }
]

Continue with the compound presented below.
[in] Given `CC(=O)c1ccc2c(c1)N(CCCN1CCC(CCO)CC1)c1ccccc1S2` , state whether its LBPA endosome anti-LBPA integrated intensity (z-score) is at least -0.5.
[out] 1

---

system: HeLa MZ; experiment: LBPA endosome anti-LBPA integrated intensity (sum per cell), Z-score; higher = more LBPA staining; conditions: compound concentration in added solution (µM; 5 µl added to 20 µl cells): 10; 18 h
Counter-ions that a name gives are not always drawn.
Property measured: LBPA endosome anti-LBPA integrated intensity (z-score)

Entry CCN(CC)CCOC(=O)C1(c2ccc([N+](=O)[O-])cc2)CCCC1 [Nitrocaramiphen hydrochloride] — recorded LBPA endosome anti-LBPA integrated intensity (z-score) = 0.568

For this molecule ( O=C(NC(Cc1cc(=O)[nH]c2ccccc12)C(=O)O)c1ccc(Cl)cc1 (stereo not drawn) [Rebamipide] ), measured LBPA endosome anti-LBPA integrated intensity (z-score) is -0.707

Entry `Clc1cnccn1` — recorded LBPA endosome anti-LBPA integrated intensity (z-score) = -0.401

// CO[C@@H]1[C@@H](OC(N)=O)[C@@H](O)[C@H](Oc2ccc3c(O)c(NC(=O)c4ccc(O)c(CC=C(C)C)c4)c(=O)oc3c2C)OC1(C)C [Novobiocin sodium salt] : LBPA endosome anti-LBPA integrated intensity (z-score) value = -0.477

The molecule listed as `C[C@](N)(Cc1ccc(O)c(O)c1)C(=O)O` has a reported LBPA endosome anti-LBPA integrated intensity (z-score) of -0.811

Looking up `CC(=O)[C@H]1CC[C@H]2[C@@H]3CCC4=CC(=O)CC[C@]4(C)[C@H]3CC[C@]12C` , I see its LBPA endosome anti-LBPA integrated intensity (z-score) listed as 0.628

Query CC(C)(C)C(=O)OCOC(=O)[C@@H]1N2C(=O)[C@@H](/N=C/N3CCCCCC3)[C@H]2SC1(C)C [Pivmecillinam hydrochloride] yields LBPA endosome anti-LBPA integrated intensity (z-score) of -0.482

Please fill in: LBPA endosome anti-LBPA integrated intensity (z-score) reported for CN1CCCC(n2nc(Cc3ccc(Cl)cc3)c3ccccc3c2=O)CC1 (stereo not drawn) [Azelastine HCl] = 2.26

---

tested on: HeLa MZ; experiment: whole-cell filipin (free cholesterol) integrated intensity, Z-score; higher = more cholesterol staining; settings: compound concentration in added solution (µM; 5 µl added to 20 µl cells): 10; 18 h
Where a name gives a salt, the structure may show the parent alone.
Property measured: whole-cell filipin (z-score)

// worked examples, whole-cell filipin (z-score) included
[
  {
    "Compound": "CN1C2CCCC1CC(NC(=O)c1nn(C)c3ccccc13)C2 (centres undefined)",
    "Value": 0.449
  },
  {
    "Compound": "Cc1ccc(S(=O)(=O)NC(=O)NN2CCCCCC2)cc1 [Tolazamide]",
    "Value": -0.547
  },
  {
    "Compound": "CC(C)NCC(O)c1ccc(O)c(O)c1 (single isomer, unassigned; (+)) [(+)-Isoproterenol (+)-bitartrate salt]",
    "Value": -0.346
  }
]

Read the next record carefully.
The recorded whole-cell filipin (z-score) for entry CN1CCCCC1CCN1c2ccccc2Sc2ccc([S+](C)[O-])cc21 (centres undefined) [Mesoridazine besylate] equals 0.244

---

Reported whole-cell filipin (z-score) is given for each of the following molecules.
system: A431; experiment: whole-cell filipin (free cholesterol) integrated intensity, Z-score; higher = more cholesterol staining; conditions: compound concentration in added solution (µM; 5 µl added to 20 µl cells): 10; 18 h
# answer = number (no unit)

[
  {
    "Molecule": "Cc1ccc(-c2cc(C(F)(F)F)nn2-c2ccc(S(N)(=O)=O)cc2)cc1 [Celecoxib]",
    "Tgt": "A431",
    "Property measured": "whole-cell filipin (z-score)",
    "Value": 0.406
  }
]

C=CC(N)CCC(=O)O (stereo not given) [Vigabatrin] tested on A431 gave whole-cell filipin (z-score): -1.01

---

system: A431; assay: filipin (cholesterol) integrated intensity within LBPA endosomes, Z-score; higher = more cholesterol in LBPA endosomes; details: compound concentration in added solution (µM; 5 µl added to 20 µl cells): 10; 18 h
Counter-ions that a name gives are not always drawn.
Each entry falls into one class according to its filipin (z-score); the ranges are zone 1 (below -0.4), zone 2 (-0.4 to below -0.2), zone 3 (-0.2 or more)

[
  {
    "Compound": "CN[C@H](CC(C)C)C(=O)N[C@H]1C(=O)N[C@@H](CC(N)=O)C(=O)N[C@H]2C(=O)N[C@H]3C(=O)N[C@H](C(=O)N[C@H](C(=O)O)c4cc(O)cc(O)c4-c4cc3ccc4O)[C@H](O)c3ccc(c(Cl)c3)Oc3cc2cc(c3O[C@@H]2O[C@H](CO)[C@@H](O)[C@H](O)[C@H]2O[C@H]2C[C@](C)(N)[C@H](O)[C@H](C)O2)Oc2ccc(cc2Cl)[C@H]1O [Vancomycin hydrochloride]",
    "Label value": "zone 1"
  }
]

[in] Into which category would you place `CC1=C(/C=C/C(C)=C/C=C/C(C)=C/C(=O)O)C(C)(C)CCC1` ?
[out] zone 2

[in] Which class is correct for the following compound? NCCc1ccc(O)c(O)c1 [Dopamine hydrochloride]
[out] zone 2

[in] Into which bin does this compound go? COc1ccccc1OCCNCC(O)COc1cccc2[nH]c3ccccc3c12 (centres undefined)
[out] zone 3

[in] Hi there! Could you help me figure out the category for `Cc1nc2ccccn2c(=O)c1CCN1CCC(C(=O)c2ccc(F)cc2)CC1` please?
[out] zone 3
